- Tested on: P. falciparum stage V gametocytes
- Design: BacTiter-Glo ATP luminescence viability of purified stage V gametocytes in 384-well plates, per cent inhibition versus DMSO
- measurement-conditions: 48 h, 5 µM; inhibitor
Among all 13,000 compounds or so, about 3,200 (25%) showed an effect of 50% or more. The list shows a part of the results.
# Lookup of reported % Inhibition keyed by entry
Reply numerically in %, unit not repeated.

Recorded % Inhibition, per entry:
* NC1CCCN(Cc2ccc(-c3ccc(-c4nc5ccccc5[nH]4)s3)cc2)C1 (centres unmarked) | 41.97
* N#Cc1ccc(N2CCN(Cc3cccc(-c4cccc(-c5nc6cc(C(F)(F)F)ccc6[nH]5)c4)c3)CC2)nc1.O=C(O)C(F)(F)F | -5.62
* O=C(NCCCNc1nc2ccccc2[nH]1)c1cccc(OC(F)(F)F)c1 | -24.04
* Cc1cc(N(C)C)nc(Nc2ccc(NS(=O)(=O)c3ccccc3)cc2)n1 | 7.952
* Cc1nc2nc(N)nc(N)c2c(C)c1Cc1ccc(C#N)cc1 | -12.58

Query: Name the recorded % Inhibition for NC1CCN(Cc2cccc(-c3ccc(-c4nc5ccccc5[nH]4)s3)c2)C1.O=C(O)C(F)(F)F (centres unmarked) .
Response: 26.1

Query: Would you kindly share the measured % Inhibition for `COc1ccc(O)cc1Cc1cnc2nc(N)nc(N)c2c1C` ?
Response: -65.52

Query: Recorded % Inhibition for `OCC1CCN(Cc2ccc(-c3ccc(-c4nc5ccc(F)cc5[nH]4)s3)cc2)CC1` , please?
Response: -4.488

----------
% Inhibition: recorded values
- Tested on: P. falciparum stage V gametocytes
- Parameters: BacTiter-Glo ATP luminescence viability of purified stage V gametocytes in 384-well plates, per cent inhibition versus DMSO
- measurement-conditions: 48 h, 5 µM; inhibitor
The whole screen tested about 13,000 compounds, of which about 3,200 (25%) showed an effect of 50% or more. Some of the results follow.
Give the number; % is assumed, so skip it.

Query: Please report the recorded % Inhibition for `Nc1cccc(CNCc2ccc(-c3cccc(-c4nc5ccc(F)cc5[nH]4)c3)cc2)c1` .
Response: -46.54

Query: Which value of % Inhibition has been reported for `Fc1ccc2nc(-c3cccc(-c4cccc(CNCCc5ccncc5)c4)c3)[nH]c2c1` in the records?
Response: -45.49

Query: What value of % Inhibition has been reported for the following compound? `Cc1ccc(C(=O)Nc2ccc(-c3nc4ccccc4[nH]3)cc2)cc1S(=O)(=O)N1CCOCC1`
Response: -13.26

Query: Which % Inhibition reading was recorded for the compound `CNCCNCc1ccc(-c2cccc(-c3nc4ccc(F)cc4[nH]3)c2)cc1` ?
Response: 79.45

Query: Fill blank: measured % Inhibition of the compound `COc1ccc(CNCc2ccc(-c3cccc(-c4nc5ccc(F)cc5[nH]4)c3)cc2)cc1` is ____.
Response: -29.84

Query: % Inhibition; subject: `Fc1ccc2nc(-c3cccc(-c4ccc(CNCCc5ccncc5)cc4)c3)[nH]c2c1`
Response: 81.48

Query: Form field: reported % Inhibition of `CNc1ccc(CNCc2ccc(-c3ccc(-c4nc5ccc(F)cc5[nH]4)cc3)cc2)cc1`
Response: -78.33

Query: Which measured % Inhibition value corresponds to `CN(C)CCNCc1ccc(-c2ccc(-c3nc4ccc(F)cc4[nH]3)cc2)cc1` ?
Response: 40.34
